- TEST SYSTEM: recombinant human carbonic anhydrase II, wild type, holoprotein (holo-CA, Zn(II) bound) (Homo sapiens, UniProt P00918)
- Construct: made in house; host or cells: E. coli (inferred from 'as previously described'; b198 states E. coli for the wild type gene, b110 states BL21(DE3)pACA for a variant)
- ASSAY DETAILS: Affinity of ABD-M for holo-CA from changes in fluorescence intensity or anisotropy
- Assay type: binding
- MEASUREMENT SETUP: holocarbonic anhydrase
PROPERTY NAME: pKd
Lab note — pKd values are minus log10 of concentrations in M.

Quick one: pKd of NS(=O)(=O)c1ccc(SCCO)c2nonc12 [ABD-M] ?
6.52
